Please provide measured growth for the entries that follow.
- Tested on: MALME-3M melanoma
- test.summary: NCI-60 one-dose screen, 48 h (100 = growth as untreated, 0 = no growth, -100 = all killed)
- experimental.conditions: 10 µM unless noted
Compounds without any hit were thinned out: in the full panel of roughly 83,000, 20% have a hit. Calls of active or inactive are those of the source. Rule for the calls: active = growth percent below 10; inactive = the rest.

Worked set:
compound	growth
Cn1c(NCCc2ccc(O)c(O)c2)nc2c1c(=O)n(Cc1ccc(Br)cc1)c(=O)n2C	81.4% (inactive)
O=C1c2cc3c(cc2-c2c1c1cc(F)c(F)cc1c(=O)n2CCCn1ccnc1)OCO3	-4.79% (active)
O=C1C=C(O)C(=O)C(CC2=C(O)C(=O)C=C(O)C2=O)=C1O	108% (inactive)
CN(C)c1ccc(NC(=O)c2ccc(/C=C/C(=O)c3ncc[nH]3)cc2)cc1	87.9% (inactive)
O=c1c2c3c(sc2nc(N/N=C/c2cn(-c4ccccc4)nc2-c2ccc(Cl)cc2)n1Cc1ccccc1)CCCC3	115% (inactive)
COc1cc(C=Nc2oc(-c3ccccc3)c(-c3ccccc3)c2C#N)cc(CN2CCCCC2)c1O	110% (inactive)

Give growth for each of the items listed below.
1. Cc1ccc2c(C(C[N+](=O)[O-])c3ccccc3)c(-c3ccccc3)[nH]c2c1 (stereo unspecified)
2. O=C(/C=C/c1ccccc1)c1ccc(O)c(CN2CCN(c3cc4c(cc3F)c(=O)c(C(=O)O)cn4C3CC3)CC2)c1
3. OCCN1CCN(c2nc(Nc3ccc(-c4nc5ccccc5[nH]4)cc3)c3cn[nH]c3n2)CC1

[reply]
1. 44.7% [9.5 µM] (inactive)
2. 18.9% (inactive)
3. -74.2% (active)

Give growth for each of the items listed below.
1. COc1ccc(NC(=O)c2ccc(/C=C/C(=O)c3ncc[nH]3)cc2)cc1
2. O=C1c2cc3c(cc2-c2c1c1ccc(F)cc1c(=O)n2C[C@H](O)[C@@H](O)[C@H](O)CO)OCO3
3. N#CN1CCC[C@H]1C(=O)N1CCc2c(-c3[nH]nc4ncccc34)cccc21

[reply]
["95.1% (inactive)", "-54.6% (active)", "24% (inactive)"]

Give growth for each of the items listed below.
1. CNC(=O)c1cc(Oc2ccc(NC(=O)Nc3ccc(Cl)c(OC(F)(F)F)c3)c(F)c2)ccn1
2. NC(=NCCCOc1ccc(Cl)cc1)Nc1ccc(C(F)(F)F)cc1
3. CCOC(=O)c1sc2nc(-c3cccc(O)c3)nc(N3CCOCC3)c2c1C

[reply]
["1.66% (active)", "-49.3% (active)", "62.7% (inactive)"]

Give growth for each of the items listed below.
1. COc1cc2c(cc1O)CC[C@@H]1[C@@H]2CC[C@]2(C)[C@@H](OCCN(C)C)CC[C@@H]12
2. CN1C(=O)C2(SCC(C(=O)NCc3ccccc3)N2C(=O)C2CCCCC2)c2ccccc21 (stereo unspecified)
3. O=C(N/N=C/c1c[nH]c2ccccc12)c1cc(-c2ccccc2)on1
4. COc1cc(-c2nn(-c3ccc(C)cc3)cc2C(=O)O)ccc1O
5. C=C1c2nc3ccccc3n2C=C(c2ccc(Cl)cc2)N1Cc1ccc(OC)cc1

[reply]
16.7% (inactive)
94.1% (inactive)
94.8% (inactive)
90% (inactive)
99.3% (inactive)

Give growth for each of the items listed below.
1. CCOc1ccc(-n2nc(C(=O)Nc3ccccc3)nc2-c2cc(OC)c(OC)c(OC)c2)cc1
2. COc1cccc(/C=C2\SC(=Nc3ccc(NC(C)=O)cc3)NC2=O)c1OC

[reply]
1. 54.5% (inactive)
2. 107% (inactive)

Give growth for each of the items listed below.
1. COc1cc(C2CC(=O)c3ccccc3N2)cc(OC)c1OC (stereo unspecified)
2. O=C(CCl)Oc1ccc(-c2ccccc2)c(Br)c1
3. COc1cc(-c2nn(C)nc2-c2cc3ccccc3s2)cc(OC)c1OC
4. CCCOc1ccc2nc(NC(=O)OC)[nH]c2c1
5. COc1ccc(/C=C/C(=O)c2cc(O)ccc2O)cc1

[reply]
["93.7% (inactive)", "107% (inactive)", "76.1% (inactive)", "38% (inactive)", "100% (inactive)"]

Give growth for each of the items listed below.
1. COc1ccc(-n2nc(C)c3c(Nc4ccc(NC(=O)Nc5cccc(C(F)(F)F)c5)cc4)ncnc32)cc1
2. COc1ccc(-c2cc(=O)c3c(OC)c4ccoc4cc3o2)cc1
3. COc1cccc(-c2nc3sccn3c2-c2ccnc(NCCNS(=O)(=O)c3ccccc3)c2)c1
4. CCOC(=O)n1cc(-c2nonc2-c2cn(C)c3ncccc23)c2cc(F)ccc21

[reply]
1. -10.9% (active)
2. 113% (inactive)
3. 43.1% (inactive)
4. 84.4% (inactive)

Give growth for each of the items listed below.
1. O=C(Nc1ccccc1Cl)c1ccc(NC2=C(Cl)C(=O)N(C3CCCCC3)C2=O)cc1
2. O=c1c(F)cn(Cc2ccccc2CCl)c(=O)n1Cc1ccccc1CCl
3. COc1ccc(-c2cc(Nc3ccnc(N4CCOCC4)n3)on2)cc1
4. CCC(=O)c1ccc(Cl)s1

[reply]
1: 80.6% [30 µM] (inactive); 2: -28.1% (active); 3: 87.2% (inactive); 4: 115% (inactive)

This collection of values is drawn from PubChem BioAssay (NCI).
